B1: Pistol ribozyme (parent)
chain: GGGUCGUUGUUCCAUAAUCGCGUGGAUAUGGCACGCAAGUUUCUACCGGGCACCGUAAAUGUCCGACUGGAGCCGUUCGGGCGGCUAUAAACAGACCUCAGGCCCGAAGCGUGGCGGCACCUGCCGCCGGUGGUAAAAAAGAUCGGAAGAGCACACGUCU

# Variants of: B1
# measurementNotes: aptazyme ON/OFF ratio, guanine; higher = stronger switching; co-transcriptional cleavage with and without guanine
Measured aptazyme ON/OFF ratio, listed per entry for reference.
Lab note: jot the number down without any unit.

Example entries and their recorded answers appear below.
{"columns": ["variantCode", "aptazyme ON/OFF ratio"],
 "data": [
  ["U7A G9A U10A U11C", 1.07],
  ["U7G U8G G9C U10G U11G C12U C13G", 1.05],
  ["U7A U8A U10A U11A C12G C13G", 1.45],
  ["U7G U8A G9A U10C U11C C12G C13A", 1.09],
  ["U10A C12U C13A", 1.3],
  ["U7C G9C U10G U11A C12A", 1.25],
  ["U7A U8G G9C U10G C12U C13U", 1.38],
  ["U7G U8C G9A U10G U11G C13U", 1.38],
  ["U7G U11C C12G C13G", 1.09],
  ["U7G U8A G9U U10C U11C", 1.06]
]}

Which measured aptazyme ON/OFF ratio value corresponds to U8C G9C U10G C12G C13U ?
1.09

Please do the same for U8C G9C U11A C12G C13A as well.
1.17

Please do the same for U7A U8C G9U U11G C13A as well.
1.2

Please do the same for U8G G9C U10G U11G C13A as well.
1.16

Please do the same for U8G G9A U11A C12A as well.
1.33

Please do the same for U7A U8G G9A U10A U11A C12G C13U as well.
1.37

Please do the same for U7G U8C G9C U10C U11A C12A C13U as well.
1.04

Please do the same for U7C U8G G9C U10G C13U as well.
1.47

Please do the same for U8C G9A C13U as well.
1.43

Please do the same for U7C G9C U10G U11G C12U as well.
1.07

Please do the same for U7G G9U U10A U11C C12G as well.
1.5

Please do the same for U7G U8G G9U C12A C13G as well.
1.1
